method notes: Cytotoxicity against human BE(2)-C cells after 18 to 20 hrs by MTT assay
Assay type: cell-based
outcome measure: CC50 (µM)
State just the number; it will be interpreted in µM.

* O=C(NCCc1ccncc1)C1CCN(C(=O)c2ccccc2Oc2ccc(Cl)cc2)CC1 | 56

[ask] // CC50 lookup, key: O=C(NCCc1ccncc1)C1CCN(c2cc(=O)n(Cc3ccc(Cl)cc3)c3ccccc23)CC1
[reply] 34.1

====

method notes: Cytotoxicity against human BE(2)-C cells after 18 to 20 hrs by MTT assay
Format: cell-based
outcome measure: CC50

A selection of reference data follows.
- O=C(c1ccc(Cl)cc1)c1ccccc1C(=O)N1CCC(C(=O)NCCc2ccncc2)CC1: > 50 µM
- O=C(NCCc1ccncc1)C1CCN(C(=O)c2cccc3c2[nH]c2ccccc23)CC1: > 100 µM

Below: the item to evaluate.
[ask] // CC50 lookup, key: O=C(NCCc1ccncc1)C1CCN(C(=O)c2ccccc2Nc2ccccc2)CC1
[reply] > 100 µM
